Data provenance is patent US20180244785A1.

- SYSTEM_UNDER_TEST: T1, soluble FGFR3c receptor protein (human, UniProt P22607 141-372)
- T1 sequence: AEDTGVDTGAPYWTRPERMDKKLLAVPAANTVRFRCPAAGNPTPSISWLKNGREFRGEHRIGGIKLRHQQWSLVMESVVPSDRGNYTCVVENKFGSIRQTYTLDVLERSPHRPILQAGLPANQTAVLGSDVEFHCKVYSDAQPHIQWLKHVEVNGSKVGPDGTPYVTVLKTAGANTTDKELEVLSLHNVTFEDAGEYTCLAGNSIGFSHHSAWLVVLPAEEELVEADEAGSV
- PROTOCOL_TEXT: BLI Octet RED96, antibody on anti-hIgG Fc tip
ASSAY_ENDPOINT: koff (s⁻¹)
Answers are plain numbers, in s⁻¹.

Worked set:
Vk10 combined with the VH of Ab15 (antibody, V domains shown, captured on anti-human IgG Fc tips) VH: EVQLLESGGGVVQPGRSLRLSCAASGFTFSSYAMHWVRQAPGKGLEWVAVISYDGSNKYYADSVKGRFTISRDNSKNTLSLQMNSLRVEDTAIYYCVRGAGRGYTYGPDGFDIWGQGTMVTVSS VL: DIVMTQSPDSLAVSLGERATISCTSSRSLLHSDGKTYVYWYQQKPGQPPKLLIYELSNRFSGVPDRFSGSGSRTDFTLTISSLQAEDVAVYYCMQYIEAPLTFGGGTKVEIK    0.000701
Vk7 combined with the VH of Ab15 (antibody, V domains shown, captured on anti-human IgG Fc tips) VH: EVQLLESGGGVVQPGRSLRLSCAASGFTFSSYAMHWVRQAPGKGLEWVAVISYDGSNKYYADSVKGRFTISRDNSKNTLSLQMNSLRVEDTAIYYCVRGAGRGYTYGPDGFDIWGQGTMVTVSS VL: DIVMTQSPLSLPVTPGEPASISCKSSQSLLHSDGKTYLYWYLQKPGQPPQLLIYELSNRFSGVPDRFSGSGSGTDFTLKISRVEAEDVGVYYCMQYIEAPLTFGGGTKVEIK    0.00104

# input Report koff for Vk2 combined with the VH of Ab15 (antibody, V domains shown, captured on anti-human IgG Fc tips) VH: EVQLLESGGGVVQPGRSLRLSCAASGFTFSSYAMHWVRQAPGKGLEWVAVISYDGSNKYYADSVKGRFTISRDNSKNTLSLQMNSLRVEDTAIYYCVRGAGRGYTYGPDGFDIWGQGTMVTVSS VL: DIVMTQTPLSLSVTPGQPASISCTSSRSLLHSDGKTYVYWYLQKPGQPPQLLIYELSNRFSGVPDRFSGSGSRTDFTLKISRVEAEDVGVYYCMQYIEAPLTFGGGTKVEIK please.
# output 0.0011
